These measurements were taken from paper PMC6151589.

# pKi values compiled below
Molecular target: 5-HT2C (Homo sapiens)
Construct: gene HTR2C; human recombinant receptor; crude membrane fractions of transfected cells (CHO-K1; HEK293 or CHO)
Sequence (P28335 33-458): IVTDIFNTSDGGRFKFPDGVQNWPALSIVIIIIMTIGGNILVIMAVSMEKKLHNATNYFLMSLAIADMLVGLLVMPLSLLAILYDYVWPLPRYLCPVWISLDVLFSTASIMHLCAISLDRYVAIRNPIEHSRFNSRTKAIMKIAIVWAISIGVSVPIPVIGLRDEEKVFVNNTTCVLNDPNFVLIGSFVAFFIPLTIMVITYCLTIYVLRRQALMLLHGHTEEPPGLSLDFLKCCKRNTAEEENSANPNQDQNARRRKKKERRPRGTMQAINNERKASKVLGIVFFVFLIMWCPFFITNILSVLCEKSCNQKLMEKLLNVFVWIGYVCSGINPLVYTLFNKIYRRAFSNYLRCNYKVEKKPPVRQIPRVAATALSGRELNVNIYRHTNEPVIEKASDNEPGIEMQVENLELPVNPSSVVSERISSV
Assay: [3H]mesulergine displacement, membranes
Assay type: binding
pKi: −log10 of the molar value.
OBSERVATION_TYPE: pKi

>>> print(df.to_string())
                                   molecule  observation_type  numeric_result
0  CC(Oc1nc(N2CCNC[C@H]2C)ncc1F)c1cccc(F)c1 (mixture of isomers)               pKi            8.57
1  C[C@@H]1CNCCN1c1ncc(F)c(OCc2ccc(F)cc2)n1               pKi            7.66
2  C[C@@H]1CNCCN1c1ncc(F)c(OCCCc2cccc(F)c2)n1               pKi            7.70
3    C[C@@H]1CNCCN1c1ncc(F)c(OCc2ccccc2F)n1               pKi            7.51
4  CC(Oc1nc(N2CCNC[C@H]2C)ncc1F)c1ccc(F)cc1 (mixture of isomers)               pKi            8.35
5  CC(CCc1cccc(F)c1)Oc1nc(N2CCNC[C@H]2C)ncc1F (mixture of isomers)               pKi            7.85
6  CC(CCc1ccc(F)cc1)Oc1nc(N2CCNC[C@H]2C)ncc1F (mixture of isomers)               pKi            7.92
7  C[C@@H]1CNCCN1c1ncc(F)c(OCc2cccc(F)c2)n1               pKi            8.29

* * *

// reported inhibition at 10 µM for each item listed
Biological target: 5-HT2B (Homo sapiens)
Construct: gene HTR2B; human recombinant receptor; crude membrane fractions of transfected HEK293 or CHO cells
Sequence (P41595 whole entry): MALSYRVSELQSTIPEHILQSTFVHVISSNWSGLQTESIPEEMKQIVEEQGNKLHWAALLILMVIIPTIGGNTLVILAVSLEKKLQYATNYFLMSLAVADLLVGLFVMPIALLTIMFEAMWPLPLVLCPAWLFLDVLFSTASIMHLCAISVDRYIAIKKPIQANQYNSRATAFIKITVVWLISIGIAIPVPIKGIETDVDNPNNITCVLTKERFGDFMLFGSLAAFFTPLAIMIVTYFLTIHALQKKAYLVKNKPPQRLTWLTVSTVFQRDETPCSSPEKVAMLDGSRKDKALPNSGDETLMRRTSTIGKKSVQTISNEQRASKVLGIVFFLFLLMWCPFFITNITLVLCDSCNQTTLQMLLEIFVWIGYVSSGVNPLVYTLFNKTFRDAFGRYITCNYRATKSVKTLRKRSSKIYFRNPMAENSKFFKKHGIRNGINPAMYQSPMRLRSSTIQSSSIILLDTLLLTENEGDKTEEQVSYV
Assay: biochemical
Design: species or system HEK293 or CHO; competitive radioligand binding on crude membranes, filtration and scintillation counting
OBSERVATION_TYPE: inhibition at 10 µM (%)

>>> print(df.to_string())
                                   compound  numeric_result
0  C[C@H](Cc1cccc(F)c1)Oc1nc(N2CCNC[C@H]2C)ncc1F [compound 3, pyrimidine analogue 3]            97.4
1  C[C@H](Oc1nc(N2CCNC[C@H]2C)ncc1F)c1ccc(F)cc1 [(S,R)-4e]            95.3
2  C[C@@H]1CNCCN1c1ncc(F)c(O[C@H](C)c2ccc(F)cc2)n1 [(R,R)-4e]            99.6
3  C[C@@H]1CNCCN1c1ncc(F)c(O[C@H](C)c2cccc(F)c2)n1 [(R,R)-4d]             100

* * *

Molecular target: 5-HT2A (Homo sapiens)
Construct: gene HTR2A; human recombinant receptor; crude membrane fractions of transfected HEK293 or CHO cells
Sequence (P28223 whole entry): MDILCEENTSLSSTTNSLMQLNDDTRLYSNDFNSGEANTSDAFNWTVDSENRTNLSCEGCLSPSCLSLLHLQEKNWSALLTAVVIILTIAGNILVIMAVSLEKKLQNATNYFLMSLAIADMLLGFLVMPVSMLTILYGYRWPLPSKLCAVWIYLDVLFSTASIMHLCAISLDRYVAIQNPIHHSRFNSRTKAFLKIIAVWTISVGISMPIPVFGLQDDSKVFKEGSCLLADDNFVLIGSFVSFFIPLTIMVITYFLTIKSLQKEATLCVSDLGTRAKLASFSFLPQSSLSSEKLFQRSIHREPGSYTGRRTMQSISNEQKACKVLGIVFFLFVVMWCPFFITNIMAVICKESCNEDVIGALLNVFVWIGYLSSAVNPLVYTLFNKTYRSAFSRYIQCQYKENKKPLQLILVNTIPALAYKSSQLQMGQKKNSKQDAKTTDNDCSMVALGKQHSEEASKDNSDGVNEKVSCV
Assay: biochemical
Parameters: species or system HEK293 or CHO; competitive radioligand binding on crude membranes, filtration and scintillation counting
OBSERVATION_TYPE: inhibition at 10 µM (%)

>>> print(df.to_string())
                                   compound  unit_text  numeric_result
0  C[C@H](Cc1cccc(F)c1)Oc1nc(N2CCNC[C@H]2C)ncc1F          %            95.6
1  C[C@H](Oc1nc(N2CCNC[C@H]2C)ncc1F)c1ccc(F)cc1 [(S,R)-4e]          %            64.8
2  C[C@@H]1CNCCN1c1ncc(F)c(O[C@H](C)c2cccc(F)c2)n1 [(R,R)-4d]          %            93.3
3  C[C@H](Oc1nc(N2CCNC[C@H]2C)ncc1F)c1cccc(F)c1 [(S,R)-4d]          %            82.4

* * *

Molecular target: 5-HT1E (Homo sapiens)
Construct: gene HTR1E; human recombinant receptor, crude membranes of HEK293 or CHO cells
Sequence (P28566 whole entry): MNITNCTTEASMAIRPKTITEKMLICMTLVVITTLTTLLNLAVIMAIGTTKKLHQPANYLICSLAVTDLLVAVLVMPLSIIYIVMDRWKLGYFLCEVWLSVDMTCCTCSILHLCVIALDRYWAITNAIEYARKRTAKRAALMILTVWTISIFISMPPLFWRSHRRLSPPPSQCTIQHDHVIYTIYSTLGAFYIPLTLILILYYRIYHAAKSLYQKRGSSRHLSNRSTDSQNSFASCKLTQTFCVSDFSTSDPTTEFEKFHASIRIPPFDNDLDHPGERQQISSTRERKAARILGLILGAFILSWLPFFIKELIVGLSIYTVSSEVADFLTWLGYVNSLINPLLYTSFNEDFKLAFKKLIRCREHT
Assay: biochemical
Set-up: species or system HEK293 or CHO; competitive radioligand binding on crude membranes, filtration and scintillation counting
Conditions: read-out: Ki (nM), 1E
Let's look at some compounds and their measured Ki.
OBSERVATION_TYPE: Ki (nM)

>>> print(df.to_string())
                                   compound  numeric_result
0  C[C@@H]1CNCCN1c1ncc(F)c(O[C@H](C)c2cccc(F)c2)n1 [(R,R)-4d]            1160
1  C[C@H](Cc1cccc(F)c1)Oc1nc(N2CCNC[C@H]2C)ncc1F [compound 3, pyrimidine analogue 3]            1160

* * *

Molecular target: 5-HT2B (Homo sapiens)
Construct: gene HTR2B; human recombinant receptor; crude membrane fractions of transfected HEK293 or CHO cells
Assay: radioligand displacement, membranes
Type: binding
Conditions: pH […] MgCl2, room temperature; reference compound, may stem from the authors' earlier study (ref […])
OBSERVATION_TYPE: Ki (nM)

>>> df
                            smiles_notation                    tgt  numeric_result
0  C[C@H](Cc1cccc(F)c1)Oc1nc(N2CCNC[C@H]2C)ncc1F  5-HT2B (Homo sapiens)             7.9

* * *

Molecular target: 5-HT2C (Homo sapiens)
Construct: gene HTR2C; human recombinant receptor; crude membrane fractions of transfected cells (CHO-K1; HEK293 or CHO)
Assay: biochemical
Set-up: species or system HEK293 or CHO; competitive radioligand binding on crude membranes, filtration and scintillation counting
Protocol: Eleven dilutions (5 × assay concentration) of the test and reference compounds (Table S1) were prepared in standard binding buffer (50 mM tris(hydroxymethyl)-aminomethane-HCl (Tris-HCl), 10 mM MgCl2, 1 mM ethylenediaminetetraacetate (EDTA), pH 7.4) by serial dilution: 0.05 nM, 0.5 nM, 1.5 nM, 5 nM, 15 nM, 50 nM, 150 nM, 500 nM, 1.5 μM, 5 μM, and 50 μM. […] The tubes were capped, labeled, and counted by […] scintillation counting. […]
OBSERVATION_TYPE: inhibition at 10 µM (%)

                                   molecule                    tgt  numeric_result
0  C[C@@H]1CNCCN1c1ncc(F)c(O[C@H](C)c2ccc(F)cc2)n1 [(R,R)-4e]  5-HT2C (Homo sapiens)            94.2
1  C[C@H](Cc1cccc(F)c1)Oc1nc(N2CCNC[C@H]2C)ncc1F  5-HT2C (Homo sapiens)            98.2
2  C[C@H](Oc1nc(N2CCNC[C@H]2C)ncc1F)c1cccc(F)c1 [(S,R)-4d]  5-HT2C (Homo sapiens)            97.7
3  C[C@@H]1CNCCN1c1ncc(F)c(O[C@H](C)c2cccc(F)c2)n1 [(R,R)-4d]  5-HT2C (Homo sapiens)            98.5
4  C[C@H](Oc1nc(N2CCNC[C@H]2C)ncc1F)c1ccc(F)cc1 [(S,R)-4e]  5-HT2C (Homo sapiens)            97.8

* * *

Molecular target: 5-HT2A (Homo sapiens)
Construct: human recombinant receptor; crude membrane fractions of transfected HEK293 or CHO cells
Assay: radioligand displacement, membranes
Below, each entry is listed alongside its reported Ki.
OBSERVATION_TYPE: Ki (nM)

>>> df
                                   compound  numeric_result
0  C[C@@H]1CNCCN1c1ncc(F)c(OCc2cccc(F)c2)n1 [4b]              43
1  C[C@@H]1CNCCN1c1ncc(F)c(O[C@H](C)c2cccc(F)c2)n1 [(R,R)-4d]             222
2  C[C@H](Cc1cccc(F)c1)Oc1nc(N2CCNC[C@H]2C)ncc1F [compound 3, pyrimidine analogue 3]             128
3  CC(CCc1cccc(F)c1)Oc1nc(N2CCNC[C@H]2C)ncc1F (mixture of isomers) [4h]             170
4  CC(Oc1nc(N2CCNC[C@H]2C)ncc1F)c1ccc(F)cc1 (mixture of isomers) [4e]             426
5  CC(Oc1nc(N2CCNC[C@H]2C)ncc1F)c1cccc(F)c1 (mixture of isomers) [4d]             213
6  C[C@@H]1CNCCN1c1ncc(F)c(OCc2ccc(F)cc2)n1 [4c]              51
7  C[C@@H]1CNCCN1c1ncc(F)c(OCCCc2ccc(F)cc2)n1 [4g]              90

* * *

Molecular target: 5-HT2C (Homo sapiens)
Construct: gene HTR2C; human recombinant receptor; crude membrane fractions of transfected cells (CHO-K1; HEK293 or CHO)
Assay: radioligand displacement, membranes
Type: binding
OBSERVATION_TYPE: Ki (nM)

                                   molecule                    tgt  observation_type  unit_text  numeric_result
0  C[C@@H]1CNCCN1c1ncc(F)c(O[C@H](C)c2ccc(F)cc2)n1 [(R,R)-4e]  5-HT2C (Homo sapiens)                Ki         nM               4
1  C[C@H](Oc1nc(N2CCNC[C@H]2C)ncc1F)c1ccc(F)cc1 [(S,R)-4e]  5-HT2C (Homo sapiens)                Ki         nM              23
2  C[C@@H]1CNCCN1c1ncc(F)c(O[C@H](C)c2cccc(F)c2)n1 [(R,R)-4d]  5-HT2C (Homo sapiens)                Ki         nM             1.2
3  C[C@H](Oc1nc(N2CCNC[C@H]2C)ncc1F)c1cccc(F)c1 [(S,R)-4d]  5-HT2C (Homo sapiens)                Ki         nM              14
